Field Ki: reported value for Insulin-like growth factor-binding protein 3 (Homo sapiens); entries drawn from several documents.
Threshold 30 nM. Ki below it: True. Ki at it or above: False.

compound="O=C(O)c1cc2cc(O)c(O)cc2c(C(O)c2ccc(C(F)(F)F)cc2)n1 (configuration not stated)" label=True

Query :: Problem: For the compound "O=C(O)c1cc(Cc2ccc(O)c(O)c2)c2cc(O)c(O)cc2n1" , is Ki under 30 nM?
Result :: True

Query :: Problem: For the compound "O=C(O)c1cc2cc(O)c(O)cc2c(Cc2ccc3c(c2)OCO3)n1" , is Ki under 30 nM?
Result :: False

Query :: Problem: For the compound "COc1ccc(C(=O)c2nc(C(=O)O)cc3cc(OC)c(OC)cc23)cc1O" , is Ki under 30 nM?
Result :: False

Query :: Problem: For the compound "COc1cc2cc(C(=O)O)nc(C(=O)c3ccc(O)c(O)c3)c2c(Br)c1O" , is Ki under 30 nM?
Result :: False

Query :: Problem: For the compound "CCOC(=O)c1cc2cc(OC)c(OC)cc2c(C(=O)c2ccc(OC)c(OC)c2)n1" , is Ki under 30 nM?
Result :: False

Query :: Problem: For the compound "O=C(O)c1cc2cc(O)c(O)cc2c(C(=O)c2ccc(Oc3ccc(C(F)(F)F)cc3)c(F)c2)n1" , is Ki under 30 nM?
Result :: False
